Hello, the source for this data is patent US9114109B2, in case you need it.

experiment: Reaction of met-Ngb with nitrite to produce nitrosyl-Ngb (nitrite ferric heme reduction); type: biochemical; conditions: met-Ngb with nitrite in the presence of dithionite
Entries and their measured BRC of nitrite ferric heme reduction follow.
In your answer, state the number alone without any accompanying words.

molecule | BRC of nitrite ferric heme reduction
H64L: stable five-coordinate mutant of human neuroglobin, His64 to Leu substitution, SEQ ID NO: 9 (protein) MERPEPELIRQSWRAVSRSPLEHGTVLFARLFALEPDLLPLFQYNCRQFSSPEDCLSSPEFLDLIRKVMLVIDAAVTNVEDLSSLEEYLASLGRKHRAVGVKLSSFSTVGESLLYMLEKCLGPAFTPATRAAWSQLYGAVVQAMSRGWDGE | 0.032
C55A: recombinant human neuroglobin mutant with cysteine 55 replaced by alanine, six-coordinate (protein, UniProt Q9NPG2 1-151, looked up, variant C55A) Neuroglobin: MERPEPELIRQSWRAVSRSPLEHGTVLFARLFALEPDLLPLFQYNCRQFSSPEDALSSPEFLDHIRKVMLVIDAAVTNVEDLSSLEEYLASLGRKHRAVGVKLSSFSTVGESLLYMLEKCLGPAFTPATRAAWSQLYGAVVQAMSRGWDGE | 0.0002
WT SH: wild-type human neuroglobin without disulfide bond, cysteines reduced by incubation with 10 mM DTT (protein, UniProt Q9NPG2 1-151, looked up, cysteines reduced with DTT, wild-type human neuroglobin without disulfide bond, cysteines reduced by incubation with 10 mM DTT) Neuroglobin: MERPEPELIRQSWRAVSRSPLEHGTVLFARLFALEPDLLPLFQYNCRQFSSPEDCLSSPEFLDHIRKVMLVIDAAVTNVEDLSSLEEYLASLGRKHRAVGVKLSSFSTVGESLLYMLEKCLGPAFTPATRAAWSQLYGAVVQAMSRGWDGE | 0.0002

Next molecule, please.
Ask | Which measured BRC of nitrite ferric heme reduction value corresponds to WT SS: recombinant wild-type human neuroglobin (SEQ ID NO: 8), as purified with the C46-C55 disulfide bond formed (protein, listed as Homo sapiens, C46-C55 disulfide) MERPEPELIRQSWRAVSRSPLEHGTVLFARLFALEPDLLPLFQYNCRQFSSPEDCLSSPEFLDHIRKVMLVIDAAVTNVEDLSSLEEYLASLGRKHRAVGVKLSSFSTVGESLLYMLEKCLGPAFTPATRAAWSQLYGAVVQAMSRGWDGE ?
Reply | 0.0005
